- Test Target: purified HLA DRB1 *0101 (Homo sapiens, UniProt P01903+P01911, A100R/D57E/F55L/F60I/F76Y/I96L/L162R/M171V/P40L/Q125E/R42F/V115G/Y59C)
- Protocol Summary: IC50nM to purified HLA | DRB1 *0101
Where no end group is shown, it is not given here.
Quantity Measured: log10 of IC50 (log10 of the value in nM)
In plain terms, each number is the log10 of measured IC50 in nM.

1) AAAHFVAAWTLKAAA [SEQ ID NO: 25]; 0.67
2) AAAYFVAANTLHAAA [SEQ ID NO: 24]; 0.65
3) AAAFFVAAWTLKAAA [SEQ ID NO: 11]; 0.76
4) AAAFFVAAYTLKADA [SEQ ID NO: 17]; 0.58
5) AAAFFVAANTLHAAA [SEQ ID NO: 15]; 0.81

Looking up AAAFFVAAFTLKADA [SEQ ID NO: 18] , I found its log10 of IC50 recorded as 1.63

Looking up AAAWFVAAYTLHAAA [SEQ ID NO: 8] , I found its log10 of IC50 recorded as 0.59

Looking up AAAHFVAAWTLHAAA [SEQ ID NO: 26] , I found its log10 of IC50 recorded as 0.62

----------
- Test Target: HLA DRB1 *0405 (Homo sapiens, UniProt P01903+P01911, A100R/A169T/D86S/F76Y/I96L/K127E/L162R/M171V/N62H/P40V/Q125Y/R42H/S133A/S149N/S66Y/V115G/V209L/W38E)
- Protocol Summary: IC50nM to purified HLA | DRB1 *0405
Where no end group is shown, it is not given here.
Quantity Measured: IC50 (nM)
Number in nM, nothing else.

1. AAAQFVAAFTLHAAA [SEQ ID NO: 66]; 7.7
2. AAAQFVAAWTLHAAA [SEQ ID NO: 64]; 13
3. AAANFVAAFTLKAEA [SEQ ID NO: 61]; 12
4. AAAIFVAAWTLHAAA [SEQ ID NO: 69]; 13

Looking up AAANFVAAFTLHAAA [SEQ ID NO: 53] , I found its IC50 recorded as 12

Looking up AAAQFVAAWTLKAAA [SEQ ID NO: 63] , I found its IC50 recorded as 21

Looking up AAANFVAAFTLKADA [SEQ ID NO: 57] , I found its IC50 recorded as 13

----------
Here, each record is paired with measured pIC50 data.
- Test Target: HLA DRB4 *0101 (Homo sapiens, UniProt P01903+P13762, G164S)
- Protocol Summary: IC50nM to purified HLA | DRB4 *0101
Where no end group is shown, it is not given here.
# pIC50 = -log10(concentration in molar units)

Some solved cases for reference:
1) AAAKFVAAWTLKAEA [SEQ ID NO: 35]; 6.15
2) AAAHFVAAWTLKADA [SEQ ID NO: 31]; 5.68
3) AAAHFVAAWTLKAEA [SEQ ID NO: 36]; 6.17

Query AAAHFVAAFTLHAAA [SEQ ID NO: 28] on HLA DRB4 *0101 (Homo sapiens, UniProt P01903+P13762, G164S); pIC50 returned: 7.00

Query AAAHFVAAFTLKADA [SEQ ID NO: 33] on HLA DRB4 *0101 (Homo sapiens, UniProt P01903+P13762, G164S); pIC50 returned: 6.02

Query AAADFVAAFTLHAAA [SEQ ID NO: 43] on HLA DRB4 *0101 (Homo sapiens, UniProt P01903+P13762, G164S); pIC50 returned: 5.98

Query AAAHFVAAYTLKAEA [SEQ ID NO: 37] on HLA DRB4 *0101 (Homo sapiens, UniProt P01903+P13762, G164S); pIC50 returned: 6.14

----------
- Test Target: purified HLA DRB5 *0101 (Homo sapiens, UniProt P01903+Q30154)
- Protocol Summary: IC50nM to purified HLA | DRB5 *0101
- Experimental: Table printed on a drawing sheet, FIG. 1 Head of the field: IC50nM to purified HLA | DRB5 *0101 First copying reader's note: The comma is the decimal sign and the point a thousands separator (e.g. 21.831); some values are printed bold or italic and some SEQ ID NOs underlined, with no legend on the sheet. Where the first naming reader finds the target: head: IC50nM to purified HLA | DRB5 *0101
Where no end group is shown, it is not given here.
Here, each record is paired with measured IC50 data.
Number in nM, nothing else.

Some solved cases for reference:
1) AAAFFVAAFTLHAAA [SEQ ID NO: 14]; 29
2) AAAHFVAAYTLHAAA [SEQ ID NO: 27]; 30
3) AAAWFVAANTLHAAA [SEQ ID NO: 10]; 22
4) AAAFFVAAWTLKAAA [SEQ ID NO: 11]; 9.9
5) AAAWFVAAFTLHAAA [SEQ ID NO: 9]; 30

Looking up AAAFFVAAYTLKADA [SEQ ID NO: 17] , I found its IC50 recorded as 7.3

Looking up AAAFFVAANTLKADA [SEQ ID NO: 19] , I found its IC50 recorded as 4.4

Looking up AAAKFVAAWTLKAAA [SEQ ID NO: 4] , I found its IC50 recorded as 5.4

Looking up AAAFFVAAFTLKADA [SEQ ID NO: 18] , I found its IC50 recorded as 9.4

Looking up AAAYFVAAWTLKAAA [SEQ ID NO: 20] , I found its IC50 recorded as 5.9

Looking up AAAKFVAAWTLHAAA [SEQ ID NO: 6] , I found its IC50 recorded as 22

Looking up AAAWFVAAYTLHAAA [SEQ ID NO: 8] , I found its IC50 recorded as 25

Looking up AAAHFVAAWTLKAAA [SEQ ID NO: 25] , I found its IC50 recorded as 11

Looking up AAAWFVAAWTLKAAA [SEQ ID NO: 5] , I found its IC50 recorded as 9.3

Looking up AAAFFVAAYTLHAAA [SEQ ID NO: 13] , I found its IC50 recorded as 11

----------
- Test Target: HLA DRB1 *0401 (Homo sapiens, UniProt P01903+P01911, A100K/A169T/F76Y/I96L/K127E/L162R/M171V/N62H/P40V/Q125Y/R42H/S133A/S149N/S66Y/V115G/V209L/W38E)
- Protocol Summary: IC50nM to purified HLA | DRB1 *0401
Where no end group is shown, it is not given here.
Rule: IC50 below 8 nM gives 1 (yes). Equal to or above 8 nM gives 0 (no).

Answered examples (5):
1) AAAEFVAAWTLHAAA [SEQ ID NO: 46]; 1 (yes)
2) AAAHFVAANTLKAEA [SEQ ID NO: 39]; 0 (no)
3) AAAHFVAAWTLKADA [SEQ ID NO: 31]; 0 (no)
4) AAAHFVAAFTLKADA [SEQ ID NO: 33]; 0 (no)
5) AAADFVAAWTLKAAA [SEQ ID NO: 40]; 1 (yes)

Q: Here's an entry: AAAHFVAAWTLKAEA [SEQ ID NO: 36] . Is its IC50 below 8 nM?
Ans: 1 (yes)

Q: Here's an entry: AAADFVAAYTLHAAA [SEQ ID NO: 42] . Is its IC50 below 8 nM?
Ans: 1 (yes)

----------
- Test Target: purified HLA DRB4 *0101 (Homo sapiens, UniProt P01903+P13762, G164S)
- Sequence (P01903 26-254 limits assumed): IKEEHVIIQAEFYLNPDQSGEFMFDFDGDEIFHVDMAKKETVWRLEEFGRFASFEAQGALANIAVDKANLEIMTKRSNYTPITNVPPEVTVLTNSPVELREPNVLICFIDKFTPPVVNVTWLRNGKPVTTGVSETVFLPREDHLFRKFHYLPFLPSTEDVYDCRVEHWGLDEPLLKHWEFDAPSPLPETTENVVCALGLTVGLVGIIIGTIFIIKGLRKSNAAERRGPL
- Sequence (P13762 whole entry G164S): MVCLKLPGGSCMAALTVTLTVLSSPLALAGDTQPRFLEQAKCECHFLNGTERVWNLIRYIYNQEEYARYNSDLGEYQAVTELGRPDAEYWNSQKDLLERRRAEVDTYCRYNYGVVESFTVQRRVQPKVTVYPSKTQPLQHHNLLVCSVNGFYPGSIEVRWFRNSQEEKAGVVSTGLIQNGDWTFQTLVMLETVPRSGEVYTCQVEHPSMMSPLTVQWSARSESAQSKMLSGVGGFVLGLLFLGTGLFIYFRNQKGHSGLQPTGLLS
- Protocol Summary: IC50nM to purified HLA | DRB4 *0101
Where no end group is shown, it is not given here.
Here, each record is paired with measured IC50 data.
Output should be the measured figure followed by the unit it is expressed in.

Some solved cases for reference:
1) AAAFFVAAWTLKAAA [SEQ ID NO: 11]; 517 nM
2) AAAFFVAAFTLKADA [SEQ ID NO: 18]; 12500 nM
3) AAAFFVAAYTLHAAA [SEQ ID NO: 13]; 805 nM
4) AAAHFVAAWTLKAAA [SEQ ID NO: 25]; 384 nM
5) AAAWFVAAWTLKAAA [SEQ ID NO: 5]; 566 nM

Looking up AAAYFVAAYTLHAAA [SEQ ID NO: 22] , I found its IC50 recorded as 445 nM

Looking up AAAYFVAAFTLHAAA [SEQ ID NO: 23] , I found its IC50 recorded as 81 nM

----------
Here, each record is paired with measured log10 IC50 data.
- Test Target: HLA DRB5 *0101 (Homo sapiens, UniProt P01903+Q30154)
- Protocol Summary: IC50nM to purified HLA | DRB5 *0101
Where no end group is shown, it is not given here.
In plain terms, each number is the log10 of measured IC50 in nM.

Some solved cases for reference:
1. AAAHFVAAYTLKADA [SEQ ID NO: 32]; 1.23
2. AAAKFVAAWTLKADA [SEQ ID NO: 30]; 1.28
3. AAAHFVAAYTLKAEA [SEQ ID NO: 37]; 1.20
4. AAANFVAAWTLKAAA [SEQ ID NO: 50]; 0.94
5. AAAHFVAAWTLKAEA [SEQ ID NO: 36]; 1.26
6. AAAEFVAAWTLKAAA [SEQ ID NO: 45]; 0.83
7. AAAEFVAAWTLHAAA [SEQ ID NO: 46]; 1.68
8. AAAKFVAAWTLKAEA [SEQ ID NO: 35]; 1.23

Query AAAHFVAAWTLKADA [SEQ ID NO: 31] on HLA DRB5 *0101 (Homo sapiens, UniProt P01903+Q30154); log10 IC50 returned: 1.36

Query AAAEFVAAYTLHAAA [SEQ ID NO: 47] on HLA DRB5 *0101 (Homo sapiens, UniProt P01903+Q30154); log10 IC50 returned: 1.72

Query AAADFVAANTLHAAA [SEQ ID NO: 44] on HLA DRB5 *0101 (Homo sapiens, UniProt P01903+Q30154); log10 IC50 returned: 1.90
